tested on: Bacillus subtilis; test: Bactericidal activity against Bacillus subtilis after 24 hrs by visual and spectrophotometric analysis; assay type: functional
Calls of active or inactive are those of the source. The rule behind the calls is not given here.
Parameter: MBC

Solved cases below.
Compound	Parameter	Val
COc1ccc(C2OC(c3ccccc3)=C(c3ccccc3)N2NC(=S)Nc2ccccc2C)cc1 (configuration not stated)	MBC	50 µg/mL
COc1ccccc1NC(=S)NN1C(c2ccccc2)=C(c2ccccc2)OC1c1ccc(O)cc1 (configuration not stated)	MBC	inactive
Oc1ccc(C2OC(c3ccccc3)=C(c3ccccc3)N2NC(=S)Nc2ccccc2Cl)cc1 (configuration not stated)	MBC	100 µg/mL
O=C(O)c1cn(C2CC2)c2cc(N3CCNCC3)c(F)cc2c1=O [CIPROFLOXACIN]	MBC	25 µg/mL
COc1ccc(C2OC(c3ccccc3)=C(c3ccccc3)N2NC(=S)Nc2ccccc2Cl)cc1 (configuration not stated)	MBC	inactive

Note to self: MBC of COc1ccc(C2OC(c3ccccc3)=C(c3ccccc3)N2NC(=S)Nc2ccccc2OC)cc1 (configuration not stated) with Bacillus subtilis was 50 µg/mL

Note to self: MBC of Cc1ccccc1NC(=S)NN1C(c2ccccc2)=C(c2ccccc2)OC1c1ccc(O)cc1 (configuration not stated) with Bacillus subtilis was inactive

====

tested on: Klebsiella pneumoniae; test: Antibacterial activity against Klebsiella pneumoniae after 24 hrs by visual and spectrophotometric analysis; type: functional
Calls of active or inactive are those of the source. No cut-off for these calls is given here.
Parameter: MIC

Solved cases below.
Compound	Tested system	Val
Cc1ccccc1NC(=S)NN1C(c2ccccc2)=C(c2ccccc2)OC1c1ccc(O)cc1 (configuration not stated)	Klebsiella pneumoniae	50 µg/mL
COc1ccc(C2OC(c3ccccc3)=C(c3ccccc3)N2NC(=S)Nc2ccccc2OC)cc1 (configuration not stated)	Klebsiella pneumoniae	inactive
COc1ccc(C2OC(c3ccccc3)=C(c3ccccc3)N2NC(=S)Nc2ccccc2Cl)cc1 (configuration not stated)	Klebsiella pneumoniae	inactive
COc1ccc(C2OC(c3ccccc3)=C(c3ccccc3)N2NC(=S)Nc2ccccc2C)cc1 (configuration not stated)	Klebsiella pneumoniae	25 µg/mL
COc1ccccc1NC(=S)NN1C(c2ccccc2)=C(c2ccccc2)OC1c1ccc(O)cc1 (configuration not stated)	Klebsiella pneumoniae	25 µg/mL
Oc1ccc(C2OC(c3ccccc3)=C(c3ccccc3)N2NC(=S)Nc2ccccc2Cl)cc1 (configuration not stated)	Klebsiella pneumoniae	inactive

Note to self: MIC of O=C(O)c1cn(C2CC2)c2cc(N3CCNCC3)c(F)cc2c1=O [CIPROFLOXACIN] with Klebsiella pneumoniae was 6.25 µg/mL

====

system: Klebsiella pneumoniae; assay: Bactericidal activity against Klebsiella pneumoniae after 24 hrs by visual and spectrophotometric analysis; format: functional
Calls of active or inactive are those of the source. The calls are words filed in the database; no cut-off is given here.
Parameter: MBC

Solved cases below.
Compound	MBC
COc1ccc(C2OC(c3ccccc3)=C(c3ccccc3)N2NC(=S)Nc2ccccc2C)cc1 (configuration not stated)	50 µg/mL
COc1ccc(C2OC(c3ccccc3)=C(c3ccccc3)N2NC(=S)Nc2ccccc2Cl)cc1 (configuration not stated)	inactive
COc1ccccc1NC(=S)NN1C(c2ccccc2)=C(c2ccccc2)OC1c1ccc(O)cc1 (configuration not stated)	50 µg/mL
O=C(O)c1cn(C2CC2)c2cc(N3CCNCC3)c(F)cc2c1=O	10.2 µg/mL
Cc1ccccc1NC(=S)NN1C(c2ccccc2)=C(c2ccccc2)OC1c1ccc(O)cc1 (configuration not stated)	100 µg/mL

Value of measured MBC for the entry COc1ccc(C2OC(c3ccccc3)=C(c3ccccc3)N2NC(=S)Nc2ccccc2OC)cc1 (configuration not stated) : inactive

Value of measured MBC for the entry Oc1ccc(C2OC(c3ccccc3)=C(c3ccccc3)N2NC(=S)Nc2ccccc2Cl)cc1 (configuration not stated) : inactive

====

tested on: Staphylococcus aureus; test: Bactericidal activity against Staphylococcus aureus after 24 hrs by visual and spectrophotometric analysis; assay type: functional
Active and inactive are the calls of the source. The rule behind the calls is not given here.
Parameter: MBC

Solved cases below.
Compound	Val
O=C(O)c1cn(C2CC2)c2cc(N3CCNCC3)c(F)cc2c1=O	12.5 µg/mL
COc1ccccc1NC(=S)NN1C(c2ccccc2)=C(c2ccccc2)OC1c1ccc(O)cc1 (configuration not stated)	inactive
COc1ccc(C2OC(c3ccccc3)=C(c3ccccc3)N2NC(=S)Nc2ccccc2Cl)cc1 (configuration not stated)	inactive
COc1ccc(C2OC(c3ccccc3)=C(c3ccccc3)N2NC(=S)Nc2ccccc2OC)cc1 (configuration not stated)	100 µg/mL
COc1ccc(C2OC(c3ccccc3)=C(c3ccccc3)N2NC(=S)Nc2ccccc2C)cc1 (configuration not stated)	100 µg/mL
Oc1ccc(C2OC(c3ccccc3)=C(c3ccccc3)N2NC(=S)Nc2ccccc2Cl)cc1 (configuration not stated)	50 µg/mL

Note to self: MBC of Cc1ccccc1NC(=S)NN1C(c2ccccc2)=C(c2ccccc2)OC1c1ccc(O)cc1 (configuration not stated) with Staphylococcus aureus was inactive

====

test system: Phytophthora infestans; assay: Antifungal activity against Phytophthora infestans after 48 to 72 hrs by disk diffusion method; type: functional
Parameter: MIC (µg/mL)
Enter your answer as a number in µg/mL; do not include the unit.

Compound	Parameter	Measurement unit	Val
Cc1ccc(NC(=S)NN2C(c3ccccc3)=C(c3ccccc3)OC2c2ccc(O)cc2)cc1 (configuration not stated)	MIC	µg/mL	14
COc1ccc(C2OC(c3ccccc3)=C(c3ccccc3)N2NC(=S)Nc2ccc(C)cc2)cc1 (configuration not stated)	MIC	µg/mL	14
Oc1ccc(C2OC(c3ccccc3)=C(c3ccccc3)N2NC(=S)Nc2ccc(Cl)cc2)cc1 (configuration not stated)	MIC	µg/mL	16
Oc1ccc(C2OC(c3ccccc3)=C(c3ccccc3)N2NC(=S)Nc2ccccc2)cc1 (configuration not stated)	MIC	µg/mL	10

Value of measured MIC for the entry COC1=CC(=O)C[C@@H](C)[C@]12Oc1c(Cl)c(OC)cc(OC)c1C2=O : 20

Value of measured MIC for the entry COc1ccc(NC(=S)NN2C(c3ccccc3)=C(c3ccccc3)OC2c2ccc(O)cc2)cc1 (configuration not stated) : 16

Value of measured MIC for the entry COc1ccc(C2OC(c3ccccc3)=C(c3ccccc3)N2NC(=S)Nc2ccc(Cl)cc2)cc1 (configuration not stated) : 16
